tested on: Streptococcus pneumoniae; test: In vitro minimum inhibitory concentration against Penicillin susceptible Streptococcus pneumoniae (GC 6242); type: functional

{"SMILES_ENTRY": "Cc1ccc(Oc2ccc(-c3nc4ccc(C[C@H]5NC(=O)[C@H]([C@@H](C)c6ccccc6)NC(=O)CNC(=O)[C@H](CO)NC(=O)[C@@H]([C@@H](O)[C@@H]6CN=C(N)N6[C@H]6O[C@H](CO)[C@@H](O)[C@H](O)[C@@H]6O)NC(=O)[C@H]([C@H](O)[C@@H]6CN=C(N)N6)NC5=O)cc4o3)cc2)cc1", "UNITS_OF_MEASURE": "µg/mL", "QUALIFIER_SYMBOL": "=", "MIC": 4}
{"SMILES_ENTRY": "C[C@@H](c1ccccc1)[C@@H]1NC(=O)CNC(=O)[C@H](CO)NC(=O)[C@@H]([C@@H](O)[C@@H]2CN=C(N)N2[C@H]2O[C@H](CO)[C@@H](O)[C@H](O)[C@@H]2O)NC(=O)[C@H]([C@H](O)[C@@H]2CN=C(N)N2)NC(=O)[C@@H](Cc2ccc3nc(-c4ccc(N(C)C)cc4)oc3c2)NC1=O", "UNITS_OF_MEASURE": "µg/mL", "QUALIFIER_SYMBOL": "=", "MIC": 32}
{"SMILES_ENTRY": "C[C@@H](c1ccccc1)[C@@H]1NC(=O)CNC(=O)[C@H](CO)NC(=O)[C@@H]([C@@H](O)[C@@H]2CN=C(N)N2[C@H]2O[C@H](CO)[C@@H](O)[C@H](O)[C@@H]2O)NC(=O)[C@H]([C@H](O)[C@@H]2CN=C(N)N2)NC(=O)[C@@H](Cc2ccc3nc(SCC(=O)c4ccc(Cl)cc4)oc3c2)NC1=O", "UNITS_OF_MEASURE": "µg/mL", "QUALIFIER_SYMBOL": "=", "MIC": 8}
{"SMILES_ENTRY": "C[C@@H](c1ccccc1)[C@@H]1NC(=O)CNC(=O)[C@H](CO)NC(=O)[C@@H]([C@@H](O)[C@@H]2CN=C(N)N2[C@H]2O[C@H](CO)[C@@H](O)[C@H](O)[C@@H]2O)NC(=O)[C@H]([C@H](O)[C@@H]2CN=C(N)N2)NC(=O)[C@@H](Cc2ccc3nc(-c4cccc(F)c4)oc3c2)NC1=O", "UNITS_OF_MEASURE": "µg/mL", "QUALIFIER_SYMBOL": "=", "MIC": 8}
{"SMILES_ENTRY": "CCN1CCN(C(=O)N[C@@H](C(=O)N[C@@H]2C(=O)N3[C@@H]2SC(C)(C)[C@@H]3C(=O)O)c2ccccc2)C(=O)C1=O", "UNITS_OF_MEASURE": "µg/mL", "QUALIFIER_SYMBOL": "<", "MIC": 0.06}
